Measured values drawn from patent US9067891B2 for this set.

- SYSTEM NAME: human mGluR2 receptor (Homo sapiens)
- Construct: expressed in transfected cells; host or cells: CHO cells (membrane preparation)
- Sequence (Q14416 19-872): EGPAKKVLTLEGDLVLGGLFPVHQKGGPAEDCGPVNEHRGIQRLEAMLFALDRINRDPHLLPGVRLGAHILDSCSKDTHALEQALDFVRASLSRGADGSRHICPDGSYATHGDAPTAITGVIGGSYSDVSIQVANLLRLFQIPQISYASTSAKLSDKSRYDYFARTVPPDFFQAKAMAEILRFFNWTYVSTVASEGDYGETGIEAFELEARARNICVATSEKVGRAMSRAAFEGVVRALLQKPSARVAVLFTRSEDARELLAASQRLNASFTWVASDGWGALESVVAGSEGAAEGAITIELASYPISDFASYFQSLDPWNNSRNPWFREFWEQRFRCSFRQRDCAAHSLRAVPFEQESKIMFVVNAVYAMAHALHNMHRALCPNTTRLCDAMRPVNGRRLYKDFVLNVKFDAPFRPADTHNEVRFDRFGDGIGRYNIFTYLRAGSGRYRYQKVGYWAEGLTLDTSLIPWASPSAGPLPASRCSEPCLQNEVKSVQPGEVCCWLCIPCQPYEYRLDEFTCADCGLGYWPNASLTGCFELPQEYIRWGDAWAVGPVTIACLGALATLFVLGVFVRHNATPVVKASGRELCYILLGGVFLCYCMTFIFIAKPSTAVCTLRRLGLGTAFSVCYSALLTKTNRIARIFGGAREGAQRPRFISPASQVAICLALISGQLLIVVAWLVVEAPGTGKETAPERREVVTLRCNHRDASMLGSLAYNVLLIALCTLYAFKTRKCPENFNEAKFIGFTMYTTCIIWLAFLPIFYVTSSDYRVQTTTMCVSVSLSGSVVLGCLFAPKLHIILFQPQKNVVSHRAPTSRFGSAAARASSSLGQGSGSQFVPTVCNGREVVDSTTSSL
- ASSAY: [35S]GTPγS binding assay (GTPγS-PAM), membranes from CHO cells transfected with human mGluR2
- Assay type: biochemical
- STUDY CONDITIONS: positive allosteric modulation in presence of glutamate at predetermined EC25 concentration; averages of duplicate values of 11-concentration response curves; pEC50 = -logEC50; error about 0.3 log-units; read-out: GTPgS - hR2 PAM pEC50 (converted)
EC50 values for the compounds below.
Numeric answer only, unit µM assumed.

query: Consider the compound Cc1nccc(Oc2ccc(-c3ccn(CC4CC4)c(=O)c3C#N)c(F)c2)c1C tested on human mGluR2 receptor (Homo sapiens); state its EC50.
result: 0.372
